Known apparent KD of MS2 coat protein of a selection of sequences
- System: MS2 coat protein
- assay_summary: apparent KD of MS2 coat protein; higher = weaker reporter binding
- test_parameters: Eterna round: R107; input ligand: tryptophan 2.4 mM

# macromolecule_sequence, tested_on, apparent KD of MS2 coat protein [nM]
rows = [
    ("GCAAUACAUGAGGAUCACCCAUGUGCAGAUACCAGAGGUGUAUGCCUCCCUUGGCAGCUGCGACGCUCUGGCAUCUUGUGGGAUG [Same State Theophylline A GF19]", "MS2 coat protein", 52),
    ("AACAUGAGGAUUGAUACCAGUCCAUGAGGAUCACAUGAGGAUCACCCAUGUGGAACAUGAGGCCCUUGGCAGCAGUACAACAUGA [Same State Theophylline B]", "MS2 coat protein", 17.3),
    ("CAUACUUUAGUAUGACAUGUGGGCAGUGAUACCAGAUACGAAAGUAUCCCUUGGCAGCACAACAUGAGGAUCACCCAUGUAAUUA [Theophylline A 2]", "MS2 coat protein", 37.3),
    ("AGAGUUAGACAAAAGUCUAGCUCACCAGAAGGAGCGUCCGAAAGGACAGGUAGGUCGCUGGUACAUGAGCAUCAGCCAUGUUCCU [ArgAS 15 #OpenEnded #AlternativeMS2]", "MS2 coat protein", 24.1),
    ("CGGUCGGUCGGCCGGUGAUUAUGGGAUGAAGGAGCGUGGGAAGCUACAGGUAGGUCGCAUCCGAAAGAUGAGGAUCACCCAUCUU [SSArg A #24Alt-Ms2 Mod]", "MS2 coat protein", 21.5),
    ("ACAUGAGGAUCACCCAUGUAAUCAUCAGAAGGAGCGUGGAAUAACACAGGUAGGUCGCUGAUGUUAUGUUAAAAUGGUUCGUGAA [JR_ExcArginiA_Sub002]", "MS2 coat protein", 22.5),
    ("AAAAUAUAGACGGCCGCCACUAUAAACAUGAGGAACAUGAGGAUCACCCAUGUAUGAGGAUCACCUAGGACCGGGUCAUAUAAAA [AstrosExyTryB#1]", "MS2 coat protein", 40.2),
    ("AUAUUAAUCGGAAGGAGCGGUACAUGAGGAUCACCCAUGUGCUAAGCUAGCAGAUCCCGUUACCAGGUAGGUCGCCGAGUUAUGA [Titeonra]", "MS2 coat protein", 23.4),
    ("ACAUGUCUUAUAGAUACCAGACAGGACAUGAGGAUCACCCAUGUAAUGUAUACAUGCAGAGUCCCUUGGCAGCUAAGGUCAUAGA [#26 Same State - Theophylline B]", "MS2 coat protein", 92.8),
    ("UGUAUGUGAUCUGAUACCAGCUAAUAAGCUUGAGGAUCACCCAAGUGGAGCGGAAACGCAGGCCCUUGGCAGCAGAUCGCAUACU [Denovo 9 #StaticStem #AlternativeMS2]", "MS2 coat protein", 70.7),
    ("UGGUUUGUGAUGGAUACCAGCAGAGAAAACGUUUAUCCUAACAUGAGGAUCACCCAUGUAUGCCCUUGGCAGCUGUUGUGGGCUA [8.S]", "MS2 coat protein", 28.8),
    ("CGUAUGUAGACGGCCGCCACUGGAACAAGAGGAUCACCCUUGUACAGGGUGGGACUAUCGAGAGUCAGGACCGGGUCUACAUACA [Tryp B Ex t2]", "MS2 coat protein", 19.7),
    ("AAAGUUGAUGAGUUGCGUUUGUGUUCCGAAGGAGCGAGAAUUAUCUCAGGUAGGUCGCGGAACAUGAGGAUCACCCAUGUAUAAA [XArg-A 19 NuV1&2 original #dotplot2>1]", "MS2 coat protein", 34.3),
    ("ACCGCAUCCGUAUAGGAUGCGGGCCAUGAAGGAGCGUGGGAAACCACAGGUAGGUCGCAUGGGUUACAUGAGGAUCACCCAUGUG [Jaws]", "MS2 coat protein", 534),
    ("AUACAUGAGGAUCACCCAUGUAUAGUUGAAGGAGCGACCAGAGGGUCAGGUAGGUCGCAGCACAUGAGGAUCACCCAUGUAUUUU [#1 Exclusion - Arginine A Attempt #14 (Inspired by Pi)]", "MS2 coat protein", 27.3),
    ("UGGGAAGGAGGAAGGAGCGCCAUAAGGGUGACAGUCUGGGUACAUGAGGAUCACCCAUGUAGGCAGGUAGGUCGCCUCGCUCUCA [XArg-B15]", "MS2 coat protein", 12.5),
    ("ACUAGAGGUGGAAGGAGCGGGAGACAUGAGCAUCACAUGAGGAUCACCCAUGUAGGAUCAUCCCAGGUAGGUCGCCAUGUCGAAA [h.hgmullin]", "MS2 coat protein", 173),
    ("UUUAACGGGCACGAUACCAGCGACAUGAGGAUCACCCAUGUAAACGCGGUGACGGUCUGUUGCCCUUGGCAGCGUGCAAAAUAAU [Zaquarar]", "MS2 coat protein", 48.5),
    ("AAGAUACUCUGAAGGAGCGUCAUAAAACAUGAGGAUCACCCAUGUGCGCGGGUGUAAUUAUGACAGGUAGGUCGCAGAGUAUUUA [Arg B SS t2]", "MS2 coat protein", 442),
    ("GAGAGUGUGUGCGAAAGCACAGAUCUGGAAGGAGCGUAGAAAGAUACAGGUAGGUCGCCGGGACAUGAGGAUCACCCAUGUGUAU [ArgiA-ms2@63]", "MS2 coat protein", 34.2),
    ("GUCGGUACGUCGGCAAAGCCGAUGUGCCAGCGAGGACCGGUACGGCCGCCACUCGUACAUGAGGAUCACCCAUGUCCGGUCCGAC [Omei Trp SS A C v4]", "MS2 coat protein", 155),
    ("UGGGUUGGACCAGGAAAUGGUCUGACGCACCGAGGACCGGUACGGCCGCCACUCGGCCGUACAUGAGGAUCACCCAUGUCGGUGU [#1 Same State - Tryptophan A Attempt #13 (HarryS)]", "MS2 coat protein", 740),
    ("GCCAAAGGCUACAUGAGGAUCACCCAUGUACGAGGACCGGUACGGCCGCCACUCGUACGGCCUCCUACUGGACGGGAAACCGUCG [ETA NP+V+V2 #28]", "MS2 coat protein", 33.2),
]
